Recorded IC50 by entry
test system: H61 cells: NIH transformed 3T3 H-ras cells; assay: Clonogenic assay (6 well plates, soft agar); type: cell-based; settings: 312 h, colonies counted after Day 13, read-out: Clonogenic Assay IC50

Prompt: Fill in the recorded IC50 for this compound, with H61 cells: NIH transformed 3T3 H-ras cells as test system: O=C(CN(Cc1ccc(OCc2ccccc2)cc1)C(=O)[C@H](Cc1c[nH]cn1)NC(=O)OCc1ccccc1)NCC(c1ccccc1)c1ccccn1 (stereo partly drawn)
Response: > 1 µM

Prompt: Also need O=C(CN(Cc1ccc(OCc2ccccc2)cc1)C(=O)[C@H](Cc1c[nH]cn1)NC(=O)OCc1ccccc1)NCCc1ccccn1 , thanks.
Response: > 1 µM

***
Prompt: Fill in the recorded IC50 for this compound, with H61 cells: NIH transformed 3T3 H-ras cells as test system: CC(C)(CNC(=O)CN(Cc1ccc(Cl)cc1)C(=O)[C@H](Cc1c[nH]cn1)NC(=O)OCc1ccccc1)c1ccccc1
Response: > 1 µM

###

Recorded IC50 by entry
molecular target: SF9 affinity purified rat farnesyl protein transferase (Rattus norvegicus, UniProt Q02293+Q04631); construct: made in house; host or cells: Sf9 insect cells (baculovirus system inferred from b7); assay: PFT inhibitory activity (radiolabeled farnesyl pyrophosphate, streptavidin bead assay); type: biochemical; settings: HEPES buffer pH 7.4 containing 5 mM potassium phosphate; read-out: IC50 (μM) 5 mM K3 PO4 -2
Kindly answer with a numeric value in µM, unit omitted.

# annotated cases, reported IC50 shown
Prompt: Entry under review: O=C(CN(Cc1ccc(OCc2ccccc2)cc1)C(=O)[C@H](Cc1c[nH]cn1)NC(=O)OCc1ccccc1)NCCc1ccccn1 . Reported IC50?
Response: 0.3

Prompt: Also need CC(C)(CNC(=O)CN(Cc1ccc(OCc2ccncc2)cc1)C(=O)[C@H](Cc1c[nH]cn1)NC(=O)OCc1ccccc1)c1ccccc1 , thanks.
Response: 0.009

Prompt: Also need CC(C(=O)NCC(C)(C)c1ccccc1)N(Cc1ccc(Cl)cc1)C(=O)[C@H](Cc1cnc[nH]1)NC(=O)OCc1ccccc1 (stereo partly drawn) , thanks.
Response: 0.014

Prompt: Also need Cc1ccc(CN(CC(=O)NCC(C)(C)c2ccccc2)C(=O)[C@H](Cc2c[nH]cn2)NC(=O)OCc2ccccc2)cc1 , thanks.
Response: 0.012

***
Prompt: Entry under review: CC(CNC(=O)CN(Cc1ccc(OCc2cccnc2)cc1)C(=O)[C@H](Cc1c[nH]cn1)NC(=O)OCc1ccccc1)c1ccccc1 (stereo partly drawn) . Reported IC50?
Response: 0.007

Prompt: Also need CC(C)(CNC(=O)CN(Cc1ccc(OCc2cccnc2)cc1)C(=O)[C@H](Cc1c[nH]cn1)NC(=O)OCc1ccccc1)c1ccccc1 , thanks.
Response: 0.001

###

Recorded IC50 by entry
Molecular target: SF9 affinity purified rat farnesyl protein transferase (Rattus norvegicus, UniProt Q02293+Q04631)
Construct: made in house; host or cells: Sf9 insect cells (baculovirus system inferred from b7)
Assay: PFT inhibitory activity (radiolabeled farnesyl pyrophosphate, streptavidin bead assay)
Assay type: biochemical
Conditions: HEPES buffer pH 7.4 containing 5 mM potassium phosphate; read-out: IC50 (μM) 5 mM K3 PO4 -2
Description: The protein:farnesyl transferase (PFT) or farnesyl protein transferase (FPT) inhibitory activity of compounds of the present invention were assayed in HEPES buffer (pH 7.4) containing 5 mM potassium phosphate and 20 μM ZnCl2. The solution also contained 5 mM DTT (dithiothreitol), 5 mM MgCl2, and 0.1% PEG 8000. […] After allowing the plate to settle for 30 minutes at room temperature, radioactivity was quantitated on a microBeta counter (Model 1450, Wallec). […]

Prompt: Entry under review: CCC(CNC(=O)CN(Cc1ccc(OCc2ccccc2)cc1)C(=O)[C@H](Cc1c[nH]cn1)NC(=O)NCc1ccccc1)c1ccccc1 (some centres unmarked) [Example 27] . Reported IC50?
Response: 0.014 µM

Here is another compound to look at.
Prompt: Entry under review: CC(CNC(=O)CN(Cc1ccc(OCc2ccccc2)cc1)C(=O)[C@H](Cc1cnc[nH]1)NC(=O)OCc1ccccc1)c1ccccc1N (some centres unmarked) [Example 21] . Reported IC50?
Response: 0.008 µM
